# testedTarget: human CB1 receptors (Homo sapiens (Human), UniProt P21554)
# Sequence (P21554 whole entry): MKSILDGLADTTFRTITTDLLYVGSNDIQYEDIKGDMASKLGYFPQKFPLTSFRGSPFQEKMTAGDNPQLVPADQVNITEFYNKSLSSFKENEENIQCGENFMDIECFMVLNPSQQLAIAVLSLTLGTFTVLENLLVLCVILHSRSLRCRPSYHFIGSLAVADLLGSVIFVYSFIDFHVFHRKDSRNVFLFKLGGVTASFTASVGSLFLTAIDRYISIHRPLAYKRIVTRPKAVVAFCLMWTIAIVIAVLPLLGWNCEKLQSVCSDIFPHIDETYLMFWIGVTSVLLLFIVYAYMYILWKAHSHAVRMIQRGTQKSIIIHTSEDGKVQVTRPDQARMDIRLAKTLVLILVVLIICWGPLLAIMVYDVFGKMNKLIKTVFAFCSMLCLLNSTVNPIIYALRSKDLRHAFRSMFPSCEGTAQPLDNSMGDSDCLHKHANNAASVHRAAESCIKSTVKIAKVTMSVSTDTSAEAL
# measurementProtocol: cAMP assay, CHO cells expressing human CB1 receptors
# Assay type: cell-based
# testContext: CHO cells expressing human CB1, cAMP; read-out: human CB1 EC50
pEC50: −log10 of the molar value.
experimentalReadout: pEC50

Batch lookup, pEC50 per entry.
1. Cc1nc(C(C)(NC(=O)c2ccc(N3CC(F)(F)C3)c(OCC3CC3)n2)C2CC2)no1 (centres unmarked) [Example 340]
2. CCC(CC)(NC(=O)c1ccc(C(F)(F)F)c(OCC2CC2)n1)C(=O)O [Example 252]

["< 5.00", "< 5.00"]

Give pEC50 for each of the items listed below.
1. Cc1ccc(C(=O)NC(C)(C)c2nccs2)nc1OCC1CC1 [Example 62]
2. Cc1ccc(C(=O)NN2CCCCC2)nc1OCC1CC1 [Example 47]
3. CC(C)C[C@@H](CNc1ccc([N+](=O)[O-])c2nonc12)NC(=O)c1ccc(N2CCCC2)c(OCC2CC2)n1 [Example 344]

1: 6.25; 2: < 5.00; 3: < 5.00

Dear colleague, could you please provide pEC50 for the compounds listed below?
1. CC(C)C[C@H](NC(=O)c1ccc(N2CCCC2C)c(OCC2CC2)n1)C(N)=O (some centres unmarked) [Example 32]
2. CCC(CC)(NC(=O)c1ccc(C2CC2)c(O[C@H](CCO)C(F)(F)F)n1)C(=O)NC [Example 313]
3. Cc1ccc(C(=O)N[C@@H](CC(C)C)c2nccs2)nc1OCC1CC1 [Example 64]

5.86
< 5.00
5.83
